B1: glmS ribozyme (parent)
chain: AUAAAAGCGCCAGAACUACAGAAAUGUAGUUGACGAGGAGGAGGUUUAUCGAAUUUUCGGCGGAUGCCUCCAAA

Variants of: B1
Experiment: self-cleavage kobs at 640 uM GlcN6P; higher = faster cleavage; RNA array
Conditions: with glucosamine-6-phosphate
Variants at the floor of the assay were thinned out.
Measurement Type: self-cleavage kobs at 640 uM GlcN6P

| Sequence Record | Measurement Type | Measurement |
| --- | --- | --- |
| AUAAAAGCGCCAGAAAUACAGAAAUGUAGUUGACUAGGAGGACGUUUAUCGAAUUUUCGGCGGAUGCUUCCAAA [C16A G35U G43C C68U] | self-cleavage kobs at 640 uM GlcN6P | < 1e-05 s⁻¹ |
| AUAAAAGCGCCAGAACUACAGAAAUGUAGUUGAUGAGGAGGAGGUUUAUCGAAUUUUCGUCGGAUGCCUCCAAA [C34U G60U] | self-cleavage kobs at 640 uM GlcN6P | < 1e-05 s⁻¹ |
| AUAAAAGCGCCACAACUACAGAAAUGUAGUUGACGAGGAGGAGGUAUAUCGAAUUUUCGGCGGAUACCUACAAA [G13C U46A G66A C70A] | self-cleavage kobs at 640 uM GlcN6P | < 1e-05 s⁻¹ |
| AUAAAAGCGCCAAAACUACAGAAAUGUAGUUGACGACGAGGAGGUUUAUCGAAUUUUCGGCGGAUGCCUCCAAA [G13A G37C] | self-cleavage kobs at 640 uM GlcN6P | < 1e-05 s⁻¹ |
| AUAAAAGCGCUAGAGCUACAGAAAUGUAGUUGACGAGGAGGAGGUUUAUCGAAUUUUCGUCGGAUGCCUCCAAA [C11U A15G G60U] | self-cleavage kobs at 640 uM GlcN6P | < 1e-05 s⁻¹ |
| AUAAAAGCGCCAGAACUACAGAAAUGUAGUUGGCGAGGAGGAGGUUUAUCGAAUCUUCAGCGGAUGCCUCCAAA [A33G U55C G59A] | self-cleavage kobs at 640 uM GlcN6P | < 1e-05 s⁻¹ |
| AUAAAAGCGCCAGCACUACAGAAAUGUAGUUGACGAGGAGGAGGUUUAUCGAAUUUUCCGCGGAUGCCUCCAAA [A14C G59C] | self-cleavage kobs at 640 uM GlcN6P | < 1e-05 s⁻¹ |
| AUAAAAGCGCCAGAACUACAGAAAUGUAGUUGACGAGGGGGAGGUUGAUCGAAUUUUCCGCGGAUGCCUCCAAA [A39G U47G G59C] | self-cleavage kobs at 640 uM GlcN6P | < 1e-05 s⁻¹ |
| AUAAAAGAGCCAGAACUACAGAAAUGUAGUAGAUGAGGAGGAGGUUUAUCGAAUUUUCGCCGGAUGCCUCCAAA [C8A U31A C34U G60C] | self-cleavage kobs at 640 uM GlcN6P | < 1e-05 s⁻¹ |
| AUAAAAGCCCCAGAACUACAGAAAUGUAGUUGACGAGGCGGAGGUUUAUCGAAUUUUCGGCGGAUGCCUCCAAA [G9C A39C] | self-cleavage kobs at 640 uM GlcN6P | < 1e-05 s⁻¹ |
| AUAAAAGCGGCAGAACUACAGAAAUGUAGUUGACGAGGAGGAGGUUUAUCGAAUUUUCGUCGUAUGCCUCCAAA [C10G G60U G63U] | self-cleavage kobs at 640 uM GlcN6P | < 1e-05 s⁻¹ |
| AUAAAAGCGCCAGUGCUACAGAAAUGUAGUUGACUAGGAGGAGGUUUAUCGAAUUUUCGGCGGAUGCCUCCAAA [A14U A15G G35U] | self-cleavage kobs at 640 uM GlcN6P | < 1e-05 s⁻¹ |
| AUAAAAGCGCCAGAACUACAGAAAUGUACUUGACGAAUAGGAGGUUUAUCGGAUUUUCGGCGGAUGCCUCCAAA [G29C G37A G38U A52G] | self-cleavage kobs at 640 uM GlcN6P | < 1e-05 s⁻¹ |
| AUAAAAGCGCCAGAACUACAGAAAUGUAGUUGACGAGGAGGAGGUUUAUCGAAUUUACGGCGUAUGCCUCCAAA [U57A G63U] | self-cleavage kobs at 640 uM GlcN6P | < 1e-05 s⁻¹ |
| AUAAAAGCGCCAGAACUACAGAAAUGUAGUUGACGAGGAGGAGGUUUGUCGAAUUUUCGGCGGAUGGCUCCAAA [A48G C67G] | self-cleavage kobs at 640 uM GlcN6P | 3.36e-05 s⁻¹ |
| AUAAAAGCGCCAGAACUACAGAAAUGUAGGUGACGAGGAGGAGGCUUAUCGAAUUUUCGGCGGAUGCCUCAAAA [U30G U45C C71A] | self-cleavage kobs at 640 uM GlcN6P | 3.43e-05 s⁻¹ |
| AUAAACGCGCCAGAACUACAGAAAUGUAGUAGACGAGGAGGAGGUUUAUCGAAUUUUCGGCGGAUGCCUCCAAA [A6C U31A] | self-cleavage kobs at 640 uM GlcN6P | < 1e-05 s⁻¹ |
| AUAAAAGCGCCUGAACUACAGAAAUGUAGUUGACGAGGAGGAGGUUUAUCGACUUUUCGGCGGAUGCCUCCAAA [A12U A53C] | self-cleavage kobs at 640 uM GlcN6P | 0.0051 s⁻¹ |
| AUAAAAGCGCCAGAACUACAGAAAUGUAGUUGACGAGGGGGAGGUUAAUCGAAUUUUCGGCGGAUGCCUCCAAA [A39G U47A] | self-cleavage kobs at 640 uM GlcN6P | 0.00788 s⁻¹ |
| AUAAAAGCGCCAGAACUACAGAAAUGUAGUUGACGAAGAGGAGGUUUAUCGAAUUUUCGGCGGGUGGCUCCAAA [G37A A64G C67G] | self-cleavage kobs at 640 uM GlcN6P | < 1e-05 s⁻¹ |
| AUAAAAGCGCCAGAACUACAGAAAUGUAGUUGACGAGGAGGAGGUUGAUCGAGUUUCCGGCGGAUGCUUCCAAA [U47G A53G U57C C68U] | self-cleavage kobs at 640 uM GlcN6P | 3.09e-05 s⁻¹ |
| AUAAAAGCGCCAGAACUACAGAAAUGUACUUGACGAGGAGGAGGUUUAUCGAAUUUUCGGCGGAUGACUCUAAA [G29C C67A C71U] | self-cleavage kobs at 640 uM GlcN6P | 0.000116 s⁻¹ |
| AUAAAAGCGCCCGAACUACAGAAAUGUAGUGGACGAGGAGGAGGUUUAUCGAAUUUUCGGCGGAUGCCUCCAAA [A12C U31G] | self-cleavage kobs at 640 uM GlcN6P | 0.00081 s⁻¹ |
| AUAAAAGCGCCAGAACUACAGAAAUGUAGUUGACGAGGAGGAGGUCUAUCGAAUUUUCGGCGGAUGGCUCCAAA [U46C C67G] | self-cleavage kobs at 640 uM GlcN6P | 0.000154 s⁻¹ |
| AUAAAAGCGCCAAAACUACAGAAAUGUAGUUGACAAGGAGUAGGUUUAUCGAAUUUUCGGCGGAUGCUUCCAAA [G13A G35A G41U C68U] | self-cleavage kobs at 640 uM GlcN6P | < 1e-05 s⁻¹ |
| AUAAAAGCGCUAGAACUACAGAAAUGUAGUUGACGAGGAGGAGGUUUAUCGAAUAGUCGGCGGAUGCCUCCAAA [C11U U55A U56G] | self-cleavage kobs at 640 uM GlcN6P | 0.000289 s⁻¹ |
| AUAAAAGCGCCAGAACUACAGAAAUGUAGUUGACGAGGAGGAGGUAAAUCGAAUUUUCGGCGGAUGCCUCCAAA [U46A U47A] | self-cleavage kobs at 640 uM GlcN6P | 0.00159 s⁻¹ |
| AUAAAAGCGCCAGUACUACAGAAAUGUAGUUGACGAGGAGGAGGUUUAACGAAUUUUCGGCGGAUGCCUCCAAA [A14U U49A] | self-cleavage kobs at 640 uM GlcN6P | < 1e-05 s⁻¹ |
| AUAAAAGCGCCAGAACUACAGAAAUGUAGUUGACGAGGAGGAGGUUUAUCGAAUGUCCGGCGGAUGCCUCCAAA [U55G U57C] | self-cleavage kobs at 640 uM GlcN6P | 3.51e-05 s⁻¹ |
| AUAAAAGCGCCAGAACUACAGAAAUGUACUUGACGAGGAGGAGGUUAAUAGAAUUUUCGGCGGAUGCCUCCAAA [G29C U47A C50A] | self-cleavage kobs at 640 uM GlcN6P | < 1e-05 s⁻¹ |
| AUAAAAGCGGCAGUACUACAGAAAUGUAGUUGACGAGGAGGAGGUUUAUCGAAUUUUCGGCGGAUGCCUCCAAA [C10G A14U] | self-cleavage kobs at 640 uM GlcN6P | < 1e-05 s⁻¹ |
| AUAAAAGCGCCAGACCUACAGAAAUGUAGUUGACGAGGAGGAGGUUUAUCAAAUUUUCCGCGGAUGCCUCCAAA [A15C G51A G59C] | self-cleavage kobs at 640 uM GlcN6P | < 1e-05 s⁻¹ |
| AUAAAAGCGCCAGAACUACAGAAAUGUAGUUGACGAGGAGGAGCUUUAUCGAGUUUUCGGCGGAUGCCUCCAAA [G44C A53G] | self-cleavage kobs at 640 uM GlcN6P | 3.96e-05 s⁻¹ |
| AUAAAAGCGCCAGAACUACAGAAAUGUAGUUGACGAGGAGGAGGUUUAUCGAAUUUUCGGCGCAUGCCGCCAAA [G63C U69G] | self-cleavage kobs at 640 uM GlcN6P | 5.78e-05 s⁻¹ |
| AUAAAAGCGCAAGAACUACAGAAAUGUAGUUGACGAGGAGGAGGUUUAUCGAAUUUUCUGCGGAUGCCUCCAAA [C11A G59U] | self-cleavage kobs at 640 uM GlcN6P | 0.00335 s⁻¹ |
| AUAAAAGCGCCAGAACUACAGAAAUGUAGUUGACGAGGAGGUGGUUUAUCGAAUUUUCGGCGGAUGCCUCUAAA [A42U C71U] | self-cleavage kobs at 640 uM GlcN6P | 4.75e-05 s⁻¹ |
| AUAAAAGCGCCAUAACUACAGAAAUGUAGUUGACGAGGAGGAGGUUUAUCGAAUUUUCGGCCGAUGCCUUCAAA [G13U G62C C70U] | self-cleavage kobs at 640 uM GlcN6P | < 1e-05 s⁻¹ |
| AUAAAAGCGCCAGAACUACAGAAAUGUAGUUGACGCGGAGUAGGUUUAUCGAAUUUUCGGCGGAUGCCUCCAAA [A36C G41U] | self-cleavage kobs at 640 uM GlcN6P | < 1e-05 s⁻¹ |
| AUAAAAGCGCCAUAACUACAGAAAUGUAUUUGACGAGGAGGAGGUUUAUCGCAUUUUCGGCGGAUGCCUCCAAA [G13U G29U A52C] | self-cleavage kobs at 640 uM GlcN6P | < 1e-05 s⁻¹ |
| AUAAAAGCGCCAGUACUACAGAAAUGUAGUUGAUGACGAGGAGGUUUAUCAAAUCUUCGGCGGAUGCCUCCAAA [A14U C34U G37C G51A U55C] | self-cleavage kobs at 640 uM GlcN6P | < 1e-05 s⁻¹ |
| AUAAAAGCGCCAGAACUACAGAAAUGUAGUUGACGAGGAGGAGGUUUAUCGAAAUUUCAGCGGAUGCCUCAAAA [U54A G59A C71A] | self-cleavage kobs at 640 uM GlcN6P | < 1e-05 s⁻¹ |
| AUAAAAGCACCAGAACUACAGAAAUGUACUUGACGAGGAGGAGGUUUAUCGAAUUUUCGGCGGAUGCCUCCAAA [G9A G29C] | self-cleavage kobs at 640 uM GlcN6P | < 1e-05 s⁻¹ |
| AUAAAAGCGCCAGAACUACAGAAAUGUAGUUGACGAGGAGGCGGUUUGUCGAAUAUUCGGCGGAUGCCUCCAAA [A42C A48G U55A] | self-cleavage kobs at 640 uM GlcN6P | < 1e-05 s⁻¹ |
| AUAAAAGCGUCAGAACUACAGAAAUGUAGUUGACGAGGAGGAGGUUUAUCGAAUUUUCGGCGGAUUCCUCCAAA [C10U G66U] | self-cleavage kobs at 640 uM GlcN6P | < 1e-05 s⁻¹ |
| AUAAAAGCGCCAGACCUACAGAAAUGUAGUUGACGAGGAGGAGGUUUAUCGAAUUUUCGGCGGAUGCCCCCAAA [A15C U69C] | self-cleavage kobs at 640 uM GlcN6P | 0.000226 s⁻¹ |
| AUAAAAGCGCCACAACUACAGAAAUGUACUUGACGAGGAGGAGGUUUAUCGAAUUUUCGGCGGAUGCCUCCAAA [G13C G29C] | self-cleavage kobs at 640 uM GlcN6P | 2.89e-05 s⁻¹ |
